# measurement.protocol: Inhibition of human GFP-fused ABCG2 expressed in MDCK2 cells assessed as potentiation of mitoxantrone induced cytotoxicity by measuring cell viability after 72 hrs by MTT assay
recorded.endpoint: pEC50
Hey, just a heads up that pEC50 is the negative log base 10 of the concentration in molar.

Q. Data request, read-out pEC50, for Cc1cc(Nc2ccc(O)c([N+](=O)[O-])c2)nc(-c2ccccc2)n1
A. 7.66

Q. May I ask what pEC50 has been recorded for O=[N+]([O-])c1ccc(Nc2nc(-c3cccnc3)nc3ccccc23)cc1 ?
A. 7.89
